Assign IC50 to each entry below.
Target: Ribosyldihydronicotinamide dehydrogenase [quinone] (Homo sapiens, UniProt P16083)
Sequence (P16083 whole entry): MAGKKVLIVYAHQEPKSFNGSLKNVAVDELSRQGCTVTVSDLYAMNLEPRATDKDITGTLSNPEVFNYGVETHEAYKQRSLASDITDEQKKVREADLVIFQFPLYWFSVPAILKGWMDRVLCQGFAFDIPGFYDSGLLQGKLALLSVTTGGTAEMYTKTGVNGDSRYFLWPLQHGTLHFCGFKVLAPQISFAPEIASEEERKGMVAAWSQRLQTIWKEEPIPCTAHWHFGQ
Experiment: Inhibition of human recombinant NQO2 using DCPIP as substrate and NRH as cofactor in absence of BSA
Respond with the bare value in µM.

[ask] Data request, read-out IC50, for N=C(N)c1ccc(-c2ccc(-c3ccccc3)o2)cc1
[reply] 0.14

[ask] Data request, read-out IC50, for Cc1c(-c2ccc(C(=N)N)cc2)oc(-c2ccc(C(=N)N)cc2)c1C
[reply] 0.05

[ask] Data request, read-out IC50, for CC(=O)O.CC(=O)O.N=C(N)c1ccc(-c2ccc(-c3ccc(C(=N)N)cc3)o2)cc1
[reply] 0.63

---

system: T47D; assay: Cytotoxicity against human T47D cells after 96 hrs by MTT assay; type: functional, cell-based
property label: pIC50
Friendly reminder that pIC50 comes from taking -log10 of the concentration in mol/L.

[ask] Data request, read-out pIC50, for N=C(N)c1ccc(-c2ccc(-c3cccc(F)c3)o2)cc1
[reply] 5.55

[ask] Data request, read-out pIC50, for N=C(N)c1ccc(-c2ccc(-c3ccccc3)o2)cc1
[reply] 5.55

[ask] Data request, read-out pIC50, for CC(=O)O.Cc1ccc(-c2ccc(-c3ccc(C(=N)N)cc3)o2)cc1
[reply] 5.51

[ask] Data request, read-out pIC50, for Cn1c(-c2ccccc2)ccc1-c1ccc(C(=N)N)cc1
[reply] 5.68

[ask] Data request, read-out pIC50, for CCc1ccc(-c2ccc(-c3ccc(C(=N)N)cc3)o2)cc1
[reply] 5.52

[ask] Data request, read-out pIC50, for CC(C)(C)c1ccc(-c2ccc(-c3ccc(C(=N)N)cc3)o2)cc1
[reply] 5.44

[ask] Data request, read-out pIC50, for CC(=O)O.N=C(N)c1ccc(-c2ccc(-c3ccc(F)cc3)o2)cc1
[reply] 5.44

[ask] Data request, read-out pIC50, for N=C(N)c1ccc(-c2ccc(-c3ccc(Br)cc3)o2)cc1
[reply] 5.62

[ask] Data request, read-out pIC50, for N=C(N)c1ccc(-c2ccc(-c3cccc([N+](=O)[O-])c3)o2)cc1
[reply] 5.48

[ask] Data request, read-out pIC50, for N=C(N)c1ccc(-c2ccc(-c3ccccc3)[nH]2)cc1
[reply] 5.47

[ask] Data request, read-out pIC50, for CC(=O)O.CC(=O)O.N=C(N)c1ccc(-c2ccc(-c3ccc(C(=N)N)cc3)o2)cc1
[reply] 4.89

---

system: Calf thymus DNA; settings: Bos taurus
Description: Binding affinity to calf thymus DNA assessed as change in melting temperature by UV-visible spectrophometry
property label: ΔTm (°C)
Respond with the bare value in °C.

[ask] Data request, read-out ΔTm, for CC(=O)O.N=C(N)c1ccc(-c2ccc(-c3ccc(F)cc3)o2)cc1
[reply] 3.2

[ask] Data request, read-out ΔTm, for N=C(N)c1ccc(-c2ccc(-c3ccccc3)o2)cc1
[reply] 1.9

[ask] Data request, read-out ΔTm, for CC(=O)O.Cc1ccc(-c2ccc(-c3ccc(C(=N)N)cc3)o2)cc1
[reply] 2.8

[ask] Data request, read-out ΔTm, for CC(=O)O.COc1ccc(-c2ccc(-c3ccc(C(=N)N)cc3)o2)cc1
[reply] 2

[ask] Data request, read-out ΔTm, for CC(=O)O.CC(=O)O.N=C(N)c1ccc(-c2ccc(-c3ccc(C(=N)N)cc3)o2)cc1
[reply] 20
